Test system: human endocervical adenocarcinoma KB-3-1 [ACC 158] cells
PROTOCOL_NOTES: MTT cytotoxicity assay, KB-3-1
Assay type: cell-based
TEST_CONDITIONS: KB 3-1
Procedure: Cytotoxic effects were evaluated on human endocervical adenocarcinoma KB-3-1 [ACC 158] cells and mouse fibroblasts L929 [ACC 2] upon treatment with Rub C, W, and Rut A and B within the concentration range of 37 μg/mL–0.63 ng/mL. The half-maximum inhibitory concentrations (IC50) were determined by standard MTT assays as reported previously (see the Supplementary Material for detailed information). The IC50 values of Rub A and Z have currently been reported. […]
ENDPOINT_LABEL: IC50 (nM)
Your answer should be a plain number; it is taken to be in nM.

**Q:** Dear colleague, I am looking for the recorded IC50 of the following molecule: C/C(=C\c1csc(C)n1)[C@@H]1C[C@@H]2O[C@]2(C)CCC[C@H](C)[C@H](O)[C@@H](C)C(=O)C(C)(C)[C@@H](O)CC(=O)O1 [Epothilone B, reference compound]
**A:** 0.053
